test: Caco-2 cell monolayer transport experiment; assay type: in vitro ADME; settings: human, average of 25, 50 and 100 μmol/L, incubation up to 90 min
As shown below, each of these compounds has a reported Papp A→B at 90 min value.

For orientation, consider the following solved cases.
> print(dat)
                                   compound           valuetype         reported
1  COc1cc(C(=O)O)cc(CC=C(C)C)c1O[C@@H]1O[C@H](CO)[C@@H](O)[C@H](O)[C@H]1O [TS]  Papp A→B at 90 min   8.9 ×10⁻⁶ cm/s
2        COc1cc(C(=O)O)cc(CC=C(C)C)c1O [PA]  Papp A→B at 90 min  29.8 ×10⁻⁶ cm/s

Kindly consider the entry below.
Lab book: Papp A→B at 90 min of COc1cc(C(=O)O)cc2c1OC(C)(C)CC2 [GA] noted as 18.1 ×10⁻⁶ cm/s

----------
As shown below, each of these compounds has a reported Papp A→B at 90 min, 50 μmol/L value.
assay: Caco-2 cell monolayer transport experiment; format: in vitro ADME; conditions: human, 50 μmol/L, incubation up to 90 min, n = 3
Write the answer as a number in ×10⁻⁶ cm/s, unit excluded.

For orientation, consider the following solved cases.
> print(dat)
                                   compound  reported
1        COc1cc(C(=O)O)cc(CC=C(C)C)c1O [PA]        28
2  COc1cc(C(=O)O)cc(CC=C(C)C)c1O[C@@H]1O[C@H](CO)[C@@H](O)[C@H](O)[C@H]1O [TS]      10.6

Kindly consider the entry below.
Lab book: Papp A→B at 90 min, 50 μmol/L of COc1cc(C(=O)O)cc2c1OC(C)(C)CC2 [GA] noted as 15.9

----------
experiment: Caco-2 cell monolayer transport experiment; format: in vitro ADME; conditions: human, 100 μmol/L, incubation up to 90 min, n = 3
valueType: Papp A→B at 90 min, 100 μmol/L (×10⁻⁶ cm/s)
Write the answer as a number in ×10⁻⁶ cm/s, unit excluded.

> print(dat)
                                smilesinput  reported
1  COc1cc(C(=O)O)cc(CC=C(C)C)c1O[C@@H]1O[C@H](CO)[C@@H](O)[C@H](O)[C@H]1O       7.7
2            COc1cc(C(=O)O)cc2c1OC(C)(C)CC2        17

Lab book: Papp A→B at 90 min, 100 μmol/L of COc1cc(C(=O)O)cc(CC=C(C)C)c1O noted as 29.6

----------
assay: Caco-2 cell monolayer transport experiment; format: in vitro ADME; conditions: human, 25 μmol/L, incubation up to 90 min, n = 3
As shown below, each of these compounds has a reported Papp A→B at 90 min, 25 μmol/L value.
Write the answer as a number in ×10⁻⁶ cm/s, unit excluded.

For orientation, consider the following solved cases.
> print(dat)
                      smilesinput                      valuetype  reported
1   COc1cc(C(=O)O)cc(CC=C(C)C)c1O  Papp A→B at 90 min, 25 μmol/L      31.7
2  COc1cc(C(=O)O)cc2c1OC(C)(C)CC2  Papp A→B at 90 min, 25 μmol/L      21.4

Lab book: Papp A→B at 90 min, 25 μmol/L of COc1cc(C(=O)O)cc(CC=C(C)C)c1O[C@@H]1O[C@H](CO)[C@@H](O)[C@H](O)[C@H]1O noted as 8.6

----------
test: Caco-2 cell monolayer transport experiment; format: in vitro ADME; conditions: human, standard markers added to the AP side, model validation, read-out: Papp of reference controls
valueType: Papp at 180 min (×10⁻⁶ cm/s)
Write the answer as a number in ×10⁻⁶ cm/s, unit excluded.

Lab book: Papp at 180 min of CC(C)NCC(O)COc1cccc2ccccc12 (stereo not shown) [propranolol, reference compound] noted as 12.4

----------
experiment: Caco-2 cell monolayer transport experiment; assay type: in vitro ADME; settings: human, 50 μmol/L, incubation up to 90 min, n = 3
As shown below, each of these compounds has a reported Papp B→A at 90 min, 50 μmol/L value.
Write the answer as a number in ×10⁻⁶ cm/s, unit excluded.

For orientation, consider the following solved cases.
> print(dat)
                                smilesinput                      valuetype  reported
1  COc1cc(C(=O)O)cc(CC=C(C)C)c1O[C@@H]1O[C@H](CO)[C@@H](O)[C@H](O)[C@H]1O  Papp B→A at 90 min, 50 μmol/L      10.8
2            COc1cc(C(=O)O)cc2c1OC(C)(C)CC2  Papp B→A at 90 min, 50 μmol/L        20

Lab book: Papp B→A at 90 min, 50 μmol/L of COc1cc(C(=O)O)cc(CC=C(C)C)c1O noted as 25.6

----------
As shown below, each of these molecules has a reported Papp at 90 min value.
test: Caco-2 cell monolayer transport experiment; format: in vitro ADME; conditions: human, monitored for 90 min, read-out: bidirectional Papp level (AP to BL and BL to AP)

For orientation, consider the following solved cases.
> print(dat)
                      smilesinput        reported
1   COc1cc(C(=O)O)cc(CC=C(C)C)c1O  ~10 ×10⁻⁶ cm/s
2  COc1cc(C(=O)O)cc2c1OC(C)(C)CC2  ~10 ×10⁻⁶ cm/s

Kindly consider the entry below.
Lab book: Papp at 90 min of COc1cc(C(=O)O)cc(CC=C(C)C)c1O[C@@H]1O[C@H](CO)[C@@H](O)[C@H](O)[C@H]1O noted as ~10 ×10⁻⁶ cm/s

----------
As shown below, each of these compounds has a reported Papp B→A at 90 min value.
assay: Caco-2 cell monolayer transport experiment; assay type: in vitro ADME; details: human, average of 25, 50 and 100 μmol/L, incubation up to 90 min
Write the answer as a number in ×10⁻⁶ cm/s, unit excluded.

For orientation, consider the following solved cases.
> print(dat)
                      smilesinput  measurementunits  reported
1  COc1cc(C(=O)O)cc2c1OC(C)(C)CC2        ×10⁻⁶ cm/s      20.5
2   COc1cc(C(=O)O)cc(CC=C(C)C)c1O        ×10⁻⁶ cm/s      25.6

Kindly consider the entry below.
Lab book: Papp B→A at 90 min of COc1cc(C(=O)O)cc(CC=C(C)C)c1O[C@@H]1O[C@H](CO)[C@@H](O)[C@H](O)[C@H]1O noted as 9.1

----------
system: Caco-2 cells; test: MTT assay on Caco-2 cells; type: cell-based, human; details: 50 μmol/L; 4 h; n = 4
As shown below, each of these molecules has a reported Survival Rate value.
# include the unit after the value

For orientation, consider the following solved cases.
molecule	Survival Rate
COc1cc(C(=O)O)cc(CC=C(C)C)c1O	110.5 ± 3.8%
COc1cc(C(=O)O)cc(CC=C(C)C)c1O[C@@H]1O[C@H](CO)[C@@H](O)[C@H](O)[C@H]1O	107.3 ± 7.0%
COc1cc(C(=O)O)cc2c1OC(C)(C)CC2	118.9 ± 13.7%

Kindly consider the entry below.
Lab book: Survival Rate of CC(=O)O[C@H]1C(=O)[C@@]2(C)[C@H]([C@H](OC(=O)c3ccccc3)[C@]3(O)C[C@H](OC(=O)[C@H](O)[C@@H](NC(=O)c4ccccc4)c4ccccc4)C(C)=C1C3(C)C)[C@]1(OC(C)=O)CO[C@@H]1C[C@@H]2O [Paclitaxel, reference compound] noted as 45.5 ± 6.7%
